Tested on: Mycobacterium tuberculosis
Test: AntiMycobacterium tuberculosis activity Non-Replicating form: Average MIC90 (uM)
Format: functional
Quantity: MIC90 (µM)
Quick reminder: number only, in µM, skip the unit.

Please give the measured MIC90 for this compound: COc1cccc(OC)c1C(=O)Nc1ccc(Cl)c(-c2nc3ccccc3s2)c1
55.1

And for O=C(CCC1CCCCC1)Nc1cccc(-c2nnc(-c3ccco3)o2)c1 ?
13.7

Likewise for Cc1ccc2nc(Cl)c(CNCc3cccs3)cc2c1 ?
93.7

Now this one: Cc1cc(C)c2cc(C(=O)NC3CCCCCCC3)[nH]c2c1
0.01

Same question for COc1ccc(Nc2ccccc2NC(=O)c2ccc(O)nc2)cc1 please.
17.8

Likewise for Cc1nc2ccccn2c1C(=O)NCc1ccc(Cl)cc1 ?
2

Thanks! And CC(=O)NCC1CN(c2ccc(-c3ccc(CO)cc3)c(F)c2)C(=O)O1 (centres undefined) ?
0.32

Request: CC(C)=CCC/C(C)=C\CNCCNC1C2CC3CC(C2)CC1C3 (centres undefined)
5.3

Same read-out for CNc1snc(C)c1C(=O)NCCOc1ccc(OC)cc1 ?
19.8

Next record, please: Cc1nnc(NCc2cccc(Cl)c2)c2ccccc12
4.61

Next: Cc1cc(NCCc2ccccc2)nc(NC(=N)Nc2ccc(Cl)cc2)n1
2.77

Again, but for CC(C)(C(=O)Nc1ccc(F)cc1)n1cc(-c2ccccc2F)cn1
3.6

Same thing, different compound: CCCCc1ccc(C(=O)Nc2nccc3ccccc23)nc1
61

Queued: O=C(Nc1cccnc1)c1c(O)c2cccc3c2n(c1=O)CC3
7.75

Further, for N#Cc1nc(-c2ccccc2F)oc1NCCc1ccccc1 ?
75.5

Moving on to CCc1nc2ccc(Cl)cn2c1C(=O)NCc1ccc(N2CCC(c3ccc(OC(F)(F)F)cc3)CC2)cc1 [TELACEBEC]
0.01

Also COc1ccc(-c2nc(-c3cccc(NC(=O)Cc4ccc(F)cc4)c3)no2)cc1OC ?
1.61

Next: CCCCS(=O)(=O)Nc1ccc2cnn(C)c2c1
1.39

One more compound: COc1cccc(-n2nnnc2S(C)(=O)=O)c1
3.34

Record: CC(Oc1ccccc1)C(=O)Nc1nc(-c2ccccn2)cs1 (centres undefined)
41.7

Then what about the compound COc1ccc(OC(C)C(=O)Nc2ccc(Cl)cc2C)cc1 (centres undefined) ?
12.2

# repeat for c1coc(CNc2nc(N3CCCCC3)nc3ccccc23)c1
27.8

---

Please go through the items and note down their CC20.
Tested on: HepG2
Assay: Cytotoxicity data HepG2 CC20 (uM)
Type: functional
Give just the numeric value; µM need not be written.

CC20 lookup needed for Cc1cccc(C(=O)Nc2ccnc(N(C)C3CCN(CC(C)C)CC3)c2)c1 , thanks.
13.7

And COC(=O)c1c(NC(=O)c2cc3ccccc3oc2=O)sc2c1CCN(Cc1ccccc1)C2 ?
12.3

Also check Cc1nn(C)c(C)c1NS(=O)(=O)c1c(Cl)cc(-c2ccnc(N3CCNCC3)c2)cc1Cl
0.05

What would you report for OCCc1ccc(Nc2nccc(-c3nnc4ccccn34)n2)cc1 ?
1.67

Similarly, C[C@]1(O)C[C@@H](c2nc(-c3ccc4ccc(-c5ccccc5)nc4c3)c3c(N)nccn32)C1 ?
4.67

---

System: Mycobacterium tuberculosis
Assay: AntiMycobacterium tuberculosis activity 1-week GAST/Fe MIC (uM)
Format: functional
Settings: 168 h
Exercise: for every item that follows, state its recorded log10 MIC.
Heads up: the numbers are on a log10 scale; they represent MIC in µM.

Which value of log10 MIC has been reported for N#Cc1ccc(-c2ccc(OCC(N)=O)cc2)cc1 in the records?
0.67

Also COc1ccc(Cn2cnc3c(-c4ccco4)nc(Cl)nc32)cc1 , if possible.
-0.11

Now the molecule COc1ccc(OC(C)C(=O)Nc2ccc(Cl)cc2C)cc1 (stereo not given)
0.36

Next: NC(=O)c1cc(-c2ccsc2)ccc1OCCOc1ccccc1
-0.41

What do you have for Cc1cc(NCCc2ccccc2)nc(NC(=N)Nc2ccc(Cl)cc2)n1 ?
-0.11

# iterate: CCc1ccc(S(=O)(=O)Nc2cc(CN3CCN(CCC(C)C)CC3)ccc2C)cc1
1.28

How about this molecule: Cc1cnc(N2CCN[C@@H](Cc3ccccc3)C2)nc1Oc1ccc(-n2ccnc2)cc1
0.80

Quick one: Cc1ccc2[nH]c(C3CCCNC3)c(-c3ccncc3)c2c1 (stereo not given)
0.19

Also, CC1=NN(c2nc3ccccc3s2)C(=O)C1Cc1cccc2ccccc12 (stereo not given) please.
0.19

Follow-up item: CS(=O)(=O)Cc1nc2ccccc2oc1=O
-0.11

Entry to check: CCCCOC(=O)Nc1cc2nc(C3CCCCC3)[nH]c2cc1N1CCCC1
-1.00

Another: O=C(NCc1ccoc1)N1CCN(Cc2ccc3c(c2)OCO3)CC1
-0.41

How about this molecule: Brc1cncc(-c2cc(NCCCn3ccnc3)nc(-c3ccccc3)n2)c1
1.10

Queued: O=C(N[C@H](Cc1ccccc1)C(=O)Nc1ccccc1N1CCOCC1)c1cccs1
-0.82
